Reference for the values: patent US10793568B2

Record form. Attribute: Emax. Fill in for each entry.
MEASUREMENT_TARGET: ligand binding domain of human FXR (Homo sapiens (Human))
Sequence (Q96RI1 262-486): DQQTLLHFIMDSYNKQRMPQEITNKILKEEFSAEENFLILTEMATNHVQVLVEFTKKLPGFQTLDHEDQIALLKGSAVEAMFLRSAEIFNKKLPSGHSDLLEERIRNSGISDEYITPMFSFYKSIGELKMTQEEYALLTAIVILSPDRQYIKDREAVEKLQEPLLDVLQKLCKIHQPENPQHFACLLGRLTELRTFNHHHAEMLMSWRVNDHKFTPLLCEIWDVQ
EXPERIMENT_NOTES: FXR ligand binding assay (LanthaScreen TR-FRET, SRC2-2 peptide recruitment)
MEASUREMENT_PARAMETERS: extent of activation relative to GW4064; read-out: % Efficacy
Answers are plain numbers, in %.

{"columns": ["CHEMICAL_STRING", "Emax [%]"],
 "data": [
  ["O=C(O)c1ncc(N2C(=O)[C@@H]3C[C@H]2C[C@H]3OCc2c(-c3c(Cl)cccc3Cl)noc2C2CC2)cn1", 103]
]}

Please give Emax for each item listed below.
1. O=C(NS(=O)(=O)C1CC1)c1ccc(N2C[C@@H]3C[C@H]2C[C@H]3OCc2c(C3CCC4(CC3)CC4)noc2C2CC2)c(F)c1
2. CC(=O)NCCCCCCCCCCS(=O)(=O)NC(=O)c1ccc(N2C[C@@H]3C[C@H]2C[C@H]3OCc2c(-c3c(Cl)cccc3Cl)noc2C2CC2)c(F)c1
3. O=C(O)c1ccc(N2C(=O)[C@@H]3C[C@H]2C[C@H]3OCc2c(-c3c(Cl)cccc3Cl)noc2C2CC2)nn1
4. C[C@@H]1[C@@H]2C[C@@H](C[C@H]2OCc2c(-c3c(Cl)cccc3Cl)noc2C2CC2)N1c1ccc(C(=O)O)cn1
5. O=C(O)CCc1ncc(N2C(=O)[C@@H]3C[C@H]2C[C@H]3OCc2c(-c3c(Cl)cccc3Cl)noc2C2CC2)cc1F

1. 150
2. 155
3. 104
4. 50
5. 87

====

MEASUREMENT_TARGET: ligand binding domain of human FXR (Homo sapiens (Human))
EXPERIMENT_NOTES: FXR ligand binding assay (LanthaScreen TR-FRET, SRC2-2 peptide recruitment)
MEASUREMENT_PARAMETERS: -log EC50, concentration required to produce 50% activation
MEASURED_ENDPOINT: EC50 (nM)
Answers are plain numbers, in nM.

{"columns": ["MOLECULE", "VALUE_UNIT", "EC50"],
 "data": [
  ["CC(CCS(=O)(=O)NC(=O)c1ccc(N2C[C@@H]3C[C@H]2C[C@H]3OCc2c(-c3c(Cl)cccc3Cl)noc2C2CC2)cc1)OC(=O)CCC(=O)O (stereo partly drawn)", "nM", 2.51],
  ["O=C(O)c1cc(OC(F)(F)F)c2nc(N3C[C@@H]4C[C@H]3C[C@H]4OCc3c(C4CCCCC4)noc3C3CC3)sc2c1", "nM", 316]
]}

Shifting focus to the molecule that follows.
Report EC50 for Cc1cc(C(=O)NO)ccc1N1C[C@@H]2C[C@H]1C[C@H]2OCc1c(-c2c(Cl)cccc2Cl)noc1C1CC1 tested on ligand binding domain of human FXR (Homo sapiens (Human)).
0.631

====

MEASUREMENT_TARGET: ligand binding domain of human FXR (Homo sapiens (Human))
EXPERIMENT_NOTES: FXR ligand binding assay (LanthaScreen TR-FRET, SRC2-2 peptide recruitment)
MEASUREMENT_PARAMETERS: -log EC50, concentration required to produce 50% activation
MEASURED_ENDPOINT: pEC50
Numbers only.

{"columns": ["COMPOUND", "pEC50"],
 "data": [
  ["Cn1nc(C(=O)NS(=O)(=O)C2CC2)cc1N1C[C@@H]2C[C@H]1C[C@H]2OCc1c(-c2c(Cl)cccc2Cl)noc1C1CC1", 7.8],
  ["Fc1cc(CCc2nn[nH]n2)ccc1N1C[C@@H]2C[C@H]1C[C@H]2OCc1c(-c2c(Cl)cccc2Cl)noc1C1CC1", 8.1],
  ["O=C(CCc1ccc(N2C[C@@H]3C[C@H]2C[C@H]3OCc2c(-c3c(F)cccc3Cl)noc2C2CC2)c(F)c1)NS(=O)(=O)C1CC1", 8.1]
]}

Please give pEC50 for each item listed below.
1. O=C(O)CCCc1ccc(N2C[C@@H]3C[C@H]2C[C@H]3OCc2c(-c3c(Cl)cccc3Cl)noc2C2CC2)c(F)c1
2. O=C(O)c1cc(C2CCCOCC2)c2nc(N3C[C@@H]4C[C@H]3C[C@H]4OCc3c(-c4c(Cl)cccc4Cl)noc3C3CC3)sc2c1 (stereo partly drawn)

1. 8.2
2. 8.6

Report pEC50 for N#Cc1c(F)cc(N2C[C@@H]3C[C@H]2C[C@H]3OCc2c(-c3c(Cl)cccc3Cl)noc2C2CC2)cc1F tested on ligand binding domain of human FXR (Homo sapiens (Human)).
7.4
